Study target: T1, recombinant protein CDH6 (UniProt P55285 54-615)
T1 construct: also called CDH6 recombinant protein; CDH6 antigen
T1 sequence (looked up): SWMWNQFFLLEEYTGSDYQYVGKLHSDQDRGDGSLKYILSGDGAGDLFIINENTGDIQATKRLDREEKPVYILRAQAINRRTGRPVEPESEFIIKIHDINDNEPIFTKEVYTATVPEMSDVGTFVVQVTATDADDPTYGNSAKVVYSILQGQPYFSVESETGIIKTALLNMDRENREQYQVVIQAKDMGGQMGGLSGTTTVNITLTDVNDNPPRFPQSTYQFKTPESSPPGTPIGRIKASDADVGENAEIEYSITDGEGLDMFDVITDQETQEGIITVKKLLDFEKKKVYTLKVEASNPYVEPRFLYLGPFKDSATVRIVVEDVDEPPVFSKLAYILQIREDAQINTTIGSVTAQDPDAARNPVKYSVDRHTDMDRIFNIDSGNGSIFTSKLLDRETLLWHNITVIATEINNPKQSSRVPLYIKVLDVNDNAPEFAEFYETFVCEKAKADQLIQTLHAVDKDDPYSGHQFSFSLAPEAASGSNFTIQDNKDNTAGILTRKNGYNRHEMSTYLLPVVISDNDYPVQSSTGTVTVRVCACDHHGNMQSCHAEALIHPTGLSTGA
Test name: ELISA, CDH6 coated; antibody 12.5 ng/mL
Entries and their OD450
The response must be a number in OD450 with no trailing unit.

See these solved cases before continuing.
| Binder | Unit label | OD450 |
| --- | --- | --- |
| CL069439 antibody (antibody, V domains shown, Mouse monoclonal antibody from hybridoma, purified from ascites with Protein A/G; also called #16; No. 16) VH: EVQLQQSGTELVRTGASVKISCKASGYSFTGYYIHWIKQSHGESLEWIGYISCFNGDTSYNQNFKDRATFNVDTSSSTAYMQFISLTSEDSAVYYCVRGRYGNFNYFDYWGQGTTLTVSS VL: DIVLTQSPASLAVSLGQRATISCRASESVEFYGTSLMQWFQQKPGHPPQLLIYATSNVDSGVPARFSASGSGTDFSLNIHPVEEADIAMYFCQQSRRIPWTFGGGTKLEIK | OD450 | 3.62 |
| CL069066 antibody (antibody, V domains shown, Mouse monoclonal antibody from hybridoma, purified from ascites with Protein A/G; also called #4; No. 4) VH: EVKLLESGGGLVQPGGSLKLSCAASGFDFSRYWMTWVRQAPGKGLEWIGEINPDSSTINYTPSLKDKFIISRDNAKNTLYLQMNKVTSEDTALYYCTRRPHYYGYFDSWGQGTTLTVSS VL: DIVLTQSPASLAVSLGQRATISCRASESVEYYGTTLMQWYQQKPGQPPQLLIYAGSNVESGVPARFSGSGSGTEFSLNIHPVEEDDIGMYFCQQSRKVPWTFGGGTKLEIK | OD450 | 1.08 |
| CL069463 antibody (antibody, V domains shown, Mouse monoclonal antibody from hybridoma, purified from ascites with Protein A/G; also called #13; No. 13) VH: EVQLVESGGGLVQPKGSLKLSCAASGFTFNTYALTWVRQAPGKGLEWVGRIKSKNKDYETYYADSVKDRFTISRNDSQSLLYLQMNNLKTEDTAIYYCVRQNWNYFDYWGQGTTLTVSS VL: DIQMTQSPASLAASVGETVTITCRASENIYYSLAWYQQRQGKSPQLLIYNANSLKDGVPSRFSGSGSGTQYSMKINSMQPEDTATYFCQQAYDVPPTFGGGTKLEIK | OD450 | 1.7 |

Consider the record given below.
For this binder ( CL069707 antibody (antibody, V domains shown, Mouse monoclonal antibody from hybridoma, purified from ascites with Protein A/G; also called #23; No. 23) VH: EVHLVESGGGLVQPKGSLKLSCVASGFTFTTYAMNWVRQAPGKGLEWVARIRIKNNNYATYYADSVTDRFTISRDDSQSMLYLQMNNLKTEDTAMYYCVRPDYGNYGLAYWGQGTLVTVSA VL: EIVLTQSPTTMAASPGEKITITCSASSSISSHYLHWYQQKPGFSPKLLIYRSFYLASGVPLRFTGSGSGTSYSLTIGTMEAEDVATYYCQQDIVPLTFGAGTKLELK ), measured OD450 is 1.27
